Origin of measurements: patent US20080146593A1

Tested on: HeLa cells
measurement.notes: Measurement of the cell cycle inhibition in HeLa cells
Assay type: cell-based
measurement.parameters: HeLa B cells, 20 h incubation with compound; FACS ratio G0/G1 to G2/M vs DMSO; concentration at which 50% of cells are in cell cycle arrest
readout.name: IC50 (µM)
Please respond with the number in µM and leave the unit unwritten.

* COc1cc(F)c(-c2c(Cl)nc(-c3ccccn3)nc2N2CCC(C)CC2)c(F)c1 [Example 61] | 0.021
* Cc1cccc(-c2nc(Cl)c(-c3c(F)cc(F)cc3F)c(N[C@@H](C)C(F)(F)F)n2)n1 [Example 13] | 0.016
* CC1CCCN1c1nc(-n2cccn2)nc(Cl)c1-c1c(F)cc(F)cc1F (centres unmarked) [Example 74] | 0.013
* C[C@H](Nc1nc(C(N)=O)nc(Cl)c1-c1c(F)cccc1F)C(F)(F)F [Example 180] | 0.041

Query: Could you tell me which IC50 is on file for C=CCCN(C)c1nc(-n2ccc(N)n2)nc(Cl)c1-c1c(F)cccc1Cl [Example 131] ?
Reply: 0.048

Query: Could you tell me which IC50 is on file for CC1CCCN(c2nc(-n3ccnn3)nc(Cl)c2-c2c(F)cc(F)cc2F)C1 (centres unmarked) [Example 42] ?
Reply: 0.018

Query: Could you tell me which IC50 is on file for Cc1nc(C(N)=NO)nc(N[C@@H](C)C(F)(F)F)c1-c1c(F)cc(F)cc1F [Example 171] ?
Reply: 0.054

Query: Could you tell me which IC50 is on file for CC(C)C(C)Nc1nc(-c2cccnn2)nc(Cl)c1-c1c(F)cc(F)cc1F (centres unmarked) [Example 80] ?
Reply: 0.026
